target: T1, cynomolgus monkey CD8 alpha on primary cynomolgus CD8+ T cells (cynomolgus monkey, UniProt P01732 23-235 (human entry)); assay: flow cytometry, cyno CD8+ T cells
T1 construct: also called Cyno CD8alpha; cyno CD8A
T1 sequence (P01732 other isoform, or with tags, fused parts or gaps limits assumed): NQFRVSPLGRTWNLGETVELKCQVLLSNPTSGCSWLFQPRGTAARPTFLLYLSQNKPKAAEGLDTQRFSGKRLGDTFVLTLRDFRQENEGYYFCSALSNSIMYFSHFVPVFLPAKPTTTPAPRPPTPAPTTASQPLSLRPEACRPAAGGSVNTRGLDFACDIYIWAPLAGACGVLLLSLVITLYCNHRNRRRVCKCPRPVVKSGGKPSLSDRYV
Parameter: Cyno T-cell Binding 2 uM (MFI). Scope: all listed entries.
Readout label: Cyno T-cell Binding 2 uM (MFI)

INSERT INTO results (binder, readout_label, value) VALUES
  ('P283FR9P1366_G5 (designed binder, FN3 domain) LPAPKNLVVSRVTEDSARLSWTAPDAAFDSFQIAYPEYPALGEAIVLTVPGSERSYDLTGLKPGTEYFVIIIGVKGGDESFPLSAIFTT', 'Cyno T-cell Binding 2 uM (MFI)', '36400 MFI'),
  ('P283ER9P1365_G1 (designed binder, FN3 domain) LPAPKNLVVSRVTEDSARLSWTAPDAAFDSFYIPYRESEFRGEAIALSVPGSERSYDLTGLKPGTKYRVIIIGVKGGEFSQPLGAIFTT', 'Cyno T-cell Binding 2 uM (MFI)', '489 MFI'),
  ('P283GR7P1367_H2 (designed binder, FN3 domain) LPAPKNLVVSRVTEDSARLSWTAPDAAFDSFDIAYPEWPTDGEAIVLTVPGSERSYDLTGLKPGTEYFVVIYGVKGGGRSYPLSAIFTT', 'Cyno T-cell Binding 2 uM (MFI)', '4210 MFI'),
  ('P283BR9P1363_G7 (designed binder, FN3 domain) LPAPKNLVVSRVTEDSARLSWSAKKFPRHFDSFLIQYQESEKVGEAIVLTVPGSERSYDLTGLKPGTEYTVSIYGVDVKWEGNRPVASNPLSAIFTT', 'Cyno T-cell Binding 2 uM (MFI)', '7210 MFI'),
  ('P283BR9P1363_F2 (designed binder, FN3 domain) LPAPKNLVVSRVTEDSARLSWYRPDNRAGAFDSFLIQYQESEKVGEAIVLTVPGSERSYDLTGLKPGTEYTVSIYGVDVKYDIDSRPISSNPLSAIFTT', 'Cyno T-cell Binding 2 uM (MFI)', '33300 MFI'),
  ('P283GR7P1367_A11 (designed binder, FN3 domain) LPAPKNLVVSRVTEDSARLSWTAPDAAFDSFDIAYPEWPTDGEAIVLTVPGSERSYDLTGLKPGTEYFVIIYGVKGGSYSEPLSAIFTT', 'Cyno T-cell Binding 2 uM (MFI)', '66700 MFI'),
  ('P283BR9P1363_F4 (designed binder, FN3 domain) LPAPKNLVVSRVTEDSARLSWERIVQTPHFDSFLIQYQESEKVGEAIVLTVPGSERSYDLTGLKPGTEYTVSIYGVDVKWEGNRPVASNPLSAIFTT', 'Cyno T-cell Binding 2 uM (MFI)', '20200 MFI'),
  ('P283GR7P1367_B7 (designed binder, FN3 domain) LPAPKNLVVSRVTEDSARLSWTAPDAAFDSFDIAYPEWPTDGEAIVLTVPGSERSYDLTGLKPGTEYFVVIYGVKGGHWSYPLSAIFTT', 'Cyno T-cell Binding 2 uM (MFI)', '37500 MFI'),
  ('P283ER9P1365_A7 (designed binder, FN3 domain) LPAPKNLVVSRVTEDSARLSWTAPDAAFDSFYIPYWESEVYGEAIALPVPGSERSYDLTGLKPGTEYQVSIIGVKGGVYSQPLAAIFTT', 'Cyno T-cell Binding 2 uM (MFI)', '36600 MFI');

Attribution: patent US20210032312A1
